Reported inhibition is given for each of the following molecules.
# Subject Of Test: UDP-galactopyranose mutase (Mycobacterium tuberculosis (strain ATCC 25618 / H37Rv))
# Measurement Description: blockers of Mtb UDP-galactopyranose mutase – biochemical, fluorescence polarization, single point, primary screen (AID 504406)
# Measurement Conditions: purified UGM, fluorescence polarization probe displacement; at 10 µM; stronger effect = higher value
About 190 (0.059%) of roughly 320,000 compounds were called active. The full list was thinned out, with actives kept by preference.
Measurement Label: inhibition (%)

INSERT INTO assay_data (molecule, measurement_label, numeric_readout) VALUES
  ('CN1C(=O)CC(N2CCN(c3ccccn3)CC2)C1=O (stereo not given)', 'inhibition', -2.59),
  ('O=C(NCc1cccnc1)Nc1cccc(NC(=O)NCc2cccnc2)c1F', 'inhibition', -4.12),
  ('O=C(O)C1CC=CCC1C(=O)NCCc1ccccc1 (stereo not given)', 'inhibition', -0.437),
  ('CC(C)(C)C1CCC(C(=O)NCC(c2cccs2)N2CCOCC2)CC1 (stereo not given)', 'inhibition', 0.328),
  ('N#CC1=C(N)C(C#N)(C#N)[C@H](c2ccsc2)[C@H]2COCC=C12', 'inhibition', 0.548);

====

# Subject Of Test: UDP-galactopyranose mutase (Mycobacterium tuberculosis (strain ATCC 25618 / H37Rv)) (UniProt P9WIQ1)
# Sequence (P9WIQ1 whole entry, looked up): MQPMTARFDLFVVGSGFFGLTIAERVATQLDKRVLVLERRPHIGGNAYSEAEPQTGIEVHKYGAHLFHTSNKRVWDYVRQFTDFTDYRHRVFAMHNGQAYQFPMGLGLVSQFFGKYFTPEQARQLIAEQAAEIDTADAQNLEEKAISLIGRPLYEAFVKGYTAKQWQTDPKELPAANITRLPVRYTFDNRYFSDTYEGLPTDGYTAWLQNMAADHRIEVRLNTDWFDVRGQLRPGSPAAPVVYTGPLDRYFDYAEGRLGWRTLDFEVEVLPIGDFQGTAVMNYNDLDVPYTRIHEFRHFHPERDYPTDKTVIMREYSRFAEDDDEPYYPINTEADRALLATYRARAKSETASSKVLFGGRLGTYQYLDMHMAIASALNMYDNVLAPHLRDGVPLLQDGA
# Measurement Description: blockers of Mtb UDP-galactopyranose mutase – biochemical, fluorescence polarization, single point, primary screen (AID 504406)
# Measurement Conditions: purified UGM, fluorescence polarization probe displacement; at 10 µM
Among all 320,000 compounds or so, about 190 (0.059%) were called active. Rule as the data show it: active = inhibition above about 10% (passing the limit was not always enough); inconclusive = no clear call, values can overlap the other calls. This excerpt belongs to a sample that is enriched for actives.
Outcomes: y = active, n = inactive

INSERT INTO measurements (molecule, discrete_label) VALUES
  ('Cc1cc(C(C)(C)C)cc(S(=O)(=O)Nc2ccc(C(=O)O)cc2)c1C', 'y'),
  ('CC(C)c1csc(CN2CCC(CO)(Cc3ccccc3)CC2)n1', 'n'),
  ('COc1ccc([N+](=O)[O-])cc1N(CC(=O)Nc1ccccc1C(=O)N1CCOCC1)S(C)(=O)=O', 'n'),
  ('CC(CCc1ccccc1)NCC(O)c1cccc([N+](=O)[O-])c1 (stereo not drawn)', 'n'),
  ('Cc1cc(C)n(CCC(=O)N2CCN(S(=O)(=O)c3ccc(C)c(C)c3)CC2)n1', 'n'),
  ('N#Cc1c(N)nc2c3c(sc(=N)c2c1N)NC(=O)CC3c1ccccc1Cl (stereo not drawn)', 'n'),
  ('O=C(Nc1ccc(F)c(Cl)c1)C1CCN(S(=O)(=O)c2cccnc2)CC1', 'n'),
  ('COc1ccc(NC(=O)CN(Cc2ccccc2)S(C)(=O)=O)cc1OC', 'n'),
  ('O=C(CSc1nnnn1-c1ccc(O)cc1)N1N=C(c2ccc3ccccc3c2)CC1c1ccccc1 (stereo not drawn)', 'n'),
  ('COc1ccc(CCN2C(=O)c3[nH]nc(-c4ccccc4O)c3C2c2ccc(C)cc2)cc1OC (stereo not drawn)', 'n'),
  ('Clc1ccc(-c2cc(COc3ccccc3)no2)cc1Cl', 'n'),
  ('Cc1cccc(N(C)C(=O)CN2C(=O)COc3ccc(S(=O)(=O)N4CCCCCC4)cc32)c1', 'n'),
  ('Cc1ccc2c(c1)C1CN(C)CCC1N2S(=O)(=O)c1ccc(Oc2ccc([N+](=O)[O-])cc2)cc1 (stereo not drawn)', 'n'),
  ('CCN(C(=O)COC(=O)CCC(=O)c1cccs1)C1CCCCC1', 'n'),
  ('CCSC1(SCC)N=C(N)C2(C#N)C(c3ccccc3)NC(C)=CC12C#N (stereo not drawn)', 'n'),
  ('O=C(CCCN1CCc2[nH]c3ccc(F)cc3c2C1)c1ccc(F)cc1', 'n'),
  ('COc1ccccc1NC(=O)N1CCCC1C(=O)NCc1cccs1 (stereo not drawn)', 'n'),
  ('Cc1ccc(CCn2c3c(c4ccccc42)CN(C)CC3)cn1', 'n'),
  ('CC(CNC(=O)Cn1cnc2c(OCc3ccccc3)ncnc21)c1ccccc1 (stereo not drawn)', 'n'),
  ('C=C(Br)CN1CCN(CC(=C)Br)CC1', 'n'),
  ('O=C(O)c1ccc(F)c(S(=O)(=O)Nc2ccccc2)c1', 'n'),
  ('CCOc1cc(C(=O)Nc2ccc(S(=O)(=O)Nc3cnc4ccccc4n3)cc2)cc(OCC)c1OCC', 'n'),
  ('Cc1cc(C)n(CCNC(=O)CC2C(=O)NCCN2Cc2ccc(C)o2)n1 (stereo not drawn)', 'n'),
  ('CCCCN(C(=O)CCNC(=O)NC12CC3CC(CC(C3)C1)C2)c1c(N)n(CCCC)c(=O)[nH]c1=O', 'n'),
  ('Cc1ccc(NC(=O)c2ccn(C(=O)Nc3ccccc3)n2)c(C)c1', 'n'),
  ('COc1ccccc1CNC(=O)c1ccc(N(C)S(=O)(=O)c2ccc(C)cc2)cc1', 'n'),
  ('COCCCNC(NC(=O)c1ccc(C)cc1)C(Cl)(Cl)Cl (stereo not drawn)', 'n'),
  ('COCCCNC(=O)c1ccc(CNS(=O)(=O)c2ccc(NC(C)=O)cc2)cc1', 'n'),
  ('COc1ccc(-c2nnc(SC(=O)N3c4ccccc4Sc4ccccc43)o2)cc1', 'n'),
  ('Cn1c(=O)cc(OCC(=O)N2CCN(c3ccccc3F)CC2)c2ccccc21', 'n'),
  ('CC(C)(C)c1cc[n+](-c2[nH]c(=O)sc2/C=N/N=C(\[O-])c2ccccc2)cc1', 'n'),
  ('Oc1ccc2ccc3cccc[n+]3c2c1', 'y'),
  ('Cc1[nH]c2ccccc2c1CCN(Cc1cccs1)C(=S)NC(C)(C)C', 'n');

====

Reported inhibition is given for each of the following compounds.
# Subject Of Test: UDP-galactopyranose mutase (Mycobacterium tuberculosis (strain ATCC 25618 / H37Rv)) (UniProt P9WIQ1)
# Measurement Description: blockers of Mtb UDP-galactopyranose mutase – biochemical, fluorescence polarization, single point, primary screen (AID 504406)
# Measurement Conditions: purified UGM, fluorescence polarization probe displacement; at 10 µM; stronger effect = higher value
In all, about 320,000 compounds went through this assay and about 190 (0.059%) were called active. Only a selection was taken, and actives are over-represented in it overall.
Measurement Label: inhibition (%)

INSERT INTO assay_data (compound, measurement_label, value_units, numeric_readout) VALUES
  ('CCN(CC(=O)Nc1cccc(S(N)(=O)=O)c1)Cc1nc2ccccc2c(=O)[nH]1', 'inhibition', '%', 0.435),
  ('O=C(CCCN1C(=O)c2ccccc2C1=O)Oc1ccc(Cl)cc1', 'inhibition', '%', 1.46),
  ('CCCCn1c(-c2cccc(C)c2)nc2cc3[nH]c(=O)c(C(C)C)nc3cc21', 'inhibition', '%', -1.53),
  ('CCc1ccc2c(c1)C1(NN=C(c3ccccc3)S1)C(=O)N2 (stereo unspecified)', 'inhibition', '%', 1.69),
  ('CCCn1nnnc1NCc1ccc(CC)cc1', 'inhibition', '%', -1.05),
  ('ONC(=Nc1ccccc1)c1ccccc1Cl', 'inhibition', '%', 0.392),
  ('COc1ccc(-c2onc3ccc(C(C)=O)cc23)cc1', 'inhibition', '%', 12.7),
  ('COC(=O)c1c(NC(=O)COc2ccc(Cl)cc2Cl)sc2c1CC(C)(C)NC2(C)C', 'inhibition', '%', -3.8),
  ('Cc1ccc2c(CC(=O)NCc3cccs3)coc2c1', 'inhibition', '%', -2.27),
  ('CCOC(CNC(=O)C1CCN(S(=O)(=O)c2ccc3nc4c(c(C(=O)O)c3c2)CC(C)CC4)CC1)OCC (stereo unspecified)', 'inhibition', '%', -0.608),
  ('O=C1NC(=O)C(c2ccc(Cl)cc2)N1 (stereo unspecified)', 'inhibition', '%', 0.455);

====

# Subject Of Test: UDP-galactopyranose mutase (Mycobacterium tuberculosis (strain ATCC 25618 / H37Rv)) (UniProt P9WIQ1)
# Measurement Description: blockers of Mtb UDP-galactopyranose mutase – biochemical, fluorescence polarization, single point, primary screen (AID 504406)
# Measurement Conditions: purified UGM, fluorescence polarization probe displacement; at 10 µM; stronger effect = higher value
Among all 320,000 compounds or so, about 190 (0.059%) were called active. The full list was thinned out, with actives kept by preference.
Measurement Label: inhibition (%)

INSERT INTO results (compound, measurement_label, numeric_readout) VALUES
  ('CC(=O)N1CC2(C)CN(C(C)=O)CC(C)(C1)C2=O', 'inhibition', -1.57),
  ('CCOc1ccc(NC(=S)N2CCC(N(C)CC3CCCO3)CC2)cc1 (stereo unspecified)', 'inhibition', 1.59),
  ('CCOC(=O)C1(CCOc2ccccc2)CCN(Cc2ccc(C#CCCO)cc2)CC1', 'inhibition', -2.01),
  ('O=C(NNC1=NCCC1)c1cccc(S(=O)(=O)N2CCCCC2)c1', 'inhibition', 2.86),
  ('CC(C)(C)CN1CCNC(=O)C1CC(=O)NC1Cc2ccccc2C1 (stereo unspecified)', 'inhibition', -0.537),
  ('CN1C(=O)c2cccc3c(N)ccc(c23)C1=O', 'inhibition', 24.4),
  ('CCOc1c(Nc2cccc(Cl)c2)c(=O)c1=O', 'inhibition', 1.65),
  ('O=C(C[n+]1cc(Br)cc2ccccc21)c1ccc(F)cc1', 'inhibition', -0.457),
  ('COc1ccc(N(CC(=O)NC2CCCCC2)C(=O)CNC(=O)c2ccco2)c(OC)c1', 'inhibition', 2.4),
  ('O=C1CCC(C(=O)N2CCN(c3ccccc3Cl)CC2)CN1CC1CCCCC1 (stereo unspecified)', 'inhibition', 0.849),
  ('Cc1nn(C)cc1N1C(=O)c2cccc3c(N)ccc(c23)C1=O', 'inhibition', 31.9);
